TP values, listed per item
- Species: Rattus norvegicus
- experiment: Open TG-GATES - Regimen: Daily Repeat
- Format: toxicity, organism-based, Sprague-Dawley
- Parameters: regimen Daily Repeat, gender Male, age 6 weeks
- settings: in vivo, po, 1000 mg/kg, […], tissue Plasma, route gavage, dose level High, time 7 day
All answers are understood in g/dL, so give the number only.

CCCCNC(=O)NS(=O)(=O)c1ccc(C)cc1 [TOLBUTAMIDE]: 5.4
CC(=O)[C@@]1(O)CC[C@H]2[C@@H]3C=C(Cl)C4=CC(=O)CC[C@]4(C)[C@H]3CC[C@@]21C: 6
CC(S)C(=O)NCC(=O)O (centres undefined): 5.2

Ask: Reported TP, compound O=C(O)c1ccccc1Nc1ccccc1 : ____
Reply: 5.6

* * *

- Species: Rattus norvegicus
- experiment: Open TG-GATES - Regimen: Single
- Format: toxicity, organism-based, Sprague-Dawley
- Design: regimen Single, gender Male, age 6 weeks
- settings: in vivo, po, 0 mg/kg, 24 h, tissue Plasma, route gavage, dose level Control
propertyMeasured: PL

C=C[C@H]1C[N@@]2CC[C@H]1C[C@@H]2[C@@H](O)c1ccnc2ccc(OC)cc12: 149.8 mg/dL
O=C(O)c1ccccc1Nc1ccccc1: 148.4 mg/dL
COc1ccc([C@@H]2Sc3ccccc3N(CCN(C)C)C(=O)[C@@H]2OC(C)=O)cc1: 148.6 mg/dL
Nc1ccc(Cc2ccc(N)cc2)cc1: 135.4 mg/dL
CCO: 150.2 mg/dL
CC(=O)[C@@]1(O)CC[C@H]2[C@@H]3C=C(Cl)C4=CC(=O)CC[C@]4(C)[C@H]3CC[C@@]21C: 166 mg/dL
CCCCNC(=O)NS(=O)(=O)c1ccc(C)cc1 [TOLBUTAMIDE]: 162.4 mg/dL
CC(S)C(=O)NCC(=O)O (centres undefined): 135.2 mg/dL

Proceeding to the next compound to report its PL.
Ask: Reported PL, compound O=c1ccc2ccccc2o1 : ____
Reply: 138 mg/dL

* * *

WBC values, listed per item
- Species on record: Rattus norvegicus
- experiment: Open TG-GATES - Regimen: Daily Repeat
- Format: toxicity, organism-based, Sprague-Dawley
- Design: regimen Daily Repeat, gender Male, age 6 weeks
- settings: in vivo, po, 100 mg/kg, […], tissue Blood, route gavage, dose level Low, time 14 day
All answers are understood in x10_2/uL, so give the number only.

CC(=O)[C@@]1(O)CC[C@H]2[C@@H]3C=C(Cl)C4=CC(=O)CC[C@]4(C)[C@H]3CC[C@@]21C: 100.2
O=C(O)c1ccccc1Nc1ccccc1: 82.2
CCCCNC(=O)NS(=O)(=O)c1ccc(C)cc1 [TOLBUTAMIDE]: 100.3

Ask: Reported WBC, compound CC(S)C(=O)NCC(=O)O (centres undefined) : ____
Reply: 147.7

* * *

- Organism: Rattus norvegicus
- experiment: Open TG-GATES - Regimen: Daily Repeat
- Type: toxicity, organism-based, Sprague-Dawley
- Set-up: regimen Daily Repeat, gender Male, age 6 weeks
- settings: in vivo, po, 0 mg/kg, […], route gavage, dose level Control, time 7 day
propertyMeasured: TERMINAL_BW (g)
All answers are understood in g, so give the number only.

Worked set:
CCN(CC)C(=S)SSC(=S)N(CC)CC: 265.7
COc1ccc([C@@H]2Sc3ccccc3N(CCN(C)C)C(=O)[C@@H]2OC(C)=O)cc1: 250.6
NS(=O)(=O)c1cc(C(=O)O)c(NCc2ccco2)cc1Cl [FUROSEMIDE]: 280.2

Ask: Reported TERMINAL_BW, compound CCCCC1C(=O)N(c2ccccc2)N(c2ccccc2)C1=O : ____
Reply: 268.9

Ask: # iterate: CC(=O)[C@@]1(O)CC[C@H]2[C@@H]3C=C(Cl)C4=CC(=O)CC[C@]4(C)[C@H]3CC[C@@]21C
Reply: 267.1

Ask: # iterate: CC(S)C(=O)NCC(=O)O (stereo not drawn)
Reply: 250.2

Ask: # iterate: CN(CCOc1ccc(CC2SC(=O)NC2=O)cc1)c1ccccn1.O=C(O)/C=C\C(=O)O (stereo not drawn) [ROSIGLITAZONE MALEATE]
Reply: 274.1

Ask: # iterate: O=c1ccc2ccccc2o1
Reply: 227.5

Ask: # iterate: Nc1ccc(Cc2ccc(N)cc2)cc1
Reply: 282.7

Ask: # iterate: CN(C/C=C/C#CC(C)(C)C)Cc1cccc2ccccc12
Reply: 279

Ask: # iterate: CCO
Reply: 263.1

Ask: # iterate: O=C(O)c1ccccc1Nc1ccccc1
Reply: 271.7

Ask: # iterate: CCCCNC(=O)NS(=O)(=O)c1ccc(C)cc1 [TOLBUTAMIDE]
Reply: 272.6
